Measured values drawn from patent US11576979B2 for this set.

assay: GSH adduct formation and stability of quinones; type: physicochemical; conditions: 25 uM, 15 mM GSH, pH 7.0, 37 C
Listing: % Rem. (percent remaining after 3 hours) of selected compounds
assay-endpoint: % Rem. (percent remaining after 3 hours) (%)

{"smiles-str": "COC(=O)c1c2c(n(C)c1CO)C(=O)C=C(OC)C2=O", "readout-value": 100}
{"smiles-str": "CCn1cc(C(=O)O)c(=O)c2cc(F)c(N3CCN(C(=O)OCc4cc5c(n4C)C(=O)C=C(OC)C5=O)CC3)cc21", "readout-value": 37.6}
{"smiles-str": "COC1=CC(=O)c2c(c(C=O)c(CO)n2C)C1=O", "readout-value": 0}
{"smiles-str": "CCn1cc(C(=O)O)c(=O)c2cc(F)c(N3CCN(C(=O)OCc4c5c(n(C)c4C)C(=O)C=C(OC)C5=O)CC3)cc21", "readout-value": 50}
{"smiles-str": "CCn1cc(C(=O)O)c(=O)c2cc(F)c(N3CCN(C(=O)OCc4ccc(NC(=O)OCc5cc6c(n5C)C(=O)C=C(OC)C6=O)cc4)CC3)cc21", "readout-value": 63}
{"smiles-str": "COC1=CC(=O)c2c(c(CO)cn2C)C1=O", "readout-value": 90}
{"smiles-str": "COC1=C(C)C(=O)c2c(c(C)c(CO)n2C)C1=O", "readout-value": 92.5}
{"smiles-str": "CCn1cc(C(=O)O)c(=O)c2cc(F)c(N3CCN(C(=O)OCc4c(C=O)c5c(n4C)C(=O)C=C(OC)C5=O)CC3)cc21", "readout-value": 82.1}
{"smiles-str": "CCn1cc(C(=O)O)c(=O)c2cc(F)c(N3CCN(C(=O)OCc4c(C)c5c(n4C)C(=O)C=C(OC)C5=O)CC3)cc21", "readout-value": 55.5}
{"smiles-str": "COC1=CC(=O)c2c(c(CO)c(C)n2C)C1=O", "readout-value": 87}
{"smiles-str": "CCn1cc(C(=O)O)c(=O)c2cc(F)c(N3CCN(C(=O)OCc4c(C(=O)OC)c5c(n4C)C(=O)C=C(OC)C5=O)CC3)cc21", "readout-value": 100}

---

target: DT Diaphorase (Homo sapiens, UniProt P15559); construct: purchased Sigma D1315; experiment: in vitro DT diaphorase activated drug release assay (NADPH depletion); assay type: biochemical; settings: 90 min
Sequence (P15559 whole entry): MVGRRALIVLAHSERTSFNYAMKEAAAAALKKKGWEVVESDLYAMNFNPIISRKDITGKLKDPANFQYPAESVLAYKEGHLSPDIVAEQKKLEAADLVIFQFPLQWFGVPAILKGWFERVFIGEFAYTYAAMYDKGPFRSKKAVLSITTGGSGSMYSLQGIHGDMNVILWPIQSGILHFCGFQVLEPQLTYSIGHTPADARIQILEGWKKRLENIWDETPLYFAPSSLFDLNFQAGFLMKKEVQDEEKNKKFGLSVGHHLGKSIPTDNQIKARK
assay-endpoint: NADPH Dep. (NADPH depletion at 90 minutes)

{"smiles-str": "COC1=C(C)C(=O)c2c(c(C)c(CO)n2C)C1=O", "readout-value": "None"}
{"smiles-str": "CCn1cc(C(=O)O)c(=O)c2cc(F)c(N3CCN(C(=O)OCc4c(C)c5c(n4C)C(=O)C=C(OC)C5=O)CC3)cc21", "readout-value": "26.1%"}
{"smiles-str": "CCn1cc(C(=O)O)c(=O)c2cc(F)c(N3CCN(C(=O)OCc4c5c(n(C)c4C)C(=O)C=C(OC)C5=O)CC3)cc21", "readout-value": "2.01%"}
{"smiles-str": "COC1=CC(=O)c2c(c(C=O)c(CO)n2C)C1=O", "readout-value": "96.92%"}
{"smiles-str": "CCn1cc(C(=O)O)c(=O)c2cc(F)c(N3CCN(C(=O)OCc4c(C=O)c5c(n4C)C(=O)C=C(OC)C5=O)CC3)cc21", "readout-value": "91.5%"}
{"smiles-str": "CCn1cc(C(=O)O)c(=O)c2cc(F)c(N3CCN(C(=O)OCc4cc5c(n4C)C(=O)C=C(OC)C5=O)CC3)cc21", "readout-value": "53.23%"}
{"smiles-str": "COC1=CC(=O)c2c(c(CO)cn2C)C1=O", "readout-value": "95.99%"}
{"smiles-str": "COC1=CC(=O)c2c(c(CO)c(C)n2C)C1=O", "readout-value": "74.83%"}
{"smiles-str": "COC(=O)c1c2c(n(C)c1CO)C(=O)C=C(OC)C2=O", "readout-value": "None"}

---

test system: WSU Cell line; test: Cell viability, DTD-activated quinone prodrugs (Example 15); assay type: cell-based; conditions: read-out: IC50 Potency (nM)
assay-endpoint: IC50 (nM)

{"compound": "C=C1C[C@H]2C(O)N(C(=O)OCc3cc4c(n3C)C(=O)C=C(OC)C4=O)c3cc(OC)c(OC)cc3C(=O)N2C1 (some centres unmarked) [PBD monomer diaphorase prodrug 2]", "assay-endpoint": "IC50", "measurement-units": "nM", "readout-value": 575}
{"compound": "C=C1C[C@H]2C=Nc3cc(OCCCCCOc4cc5c(cc4OC)C(=O)N4CC(=C)C[C@H]4C=N5)c(OC)cc3C(=O)N2C1 [PBD dimer control 1]", "assay-endpoint": "IC50", "measurement-units": "nM", "readout-value": 0.2}

---

Experiment: Disulfide cleavage by cysteine, LC/MS
Format: physicochemical
Details: 15 uM compound, 0.2 mM cysteine, pH 7.0, 37 C
Protocol: For disulfide cleavage determination, the compounds were incubated at 15 μM with 0.2 mM cysteine or 4 mM GSH in 100 mM Tris buffer pH 7.0 containing 5% methanol at 37° C. Aliquots were taken at specified time points and the samples were analyzed by LC/MS on Sciex TripleTOF 5600 on a Hypersil Gold C18 column (100×2.1, 1.9 Thermo Scientific). […]
Listed here: items and their measured % Remaining at 24 h by Cys.

{"molecule": "C=C1C[C@H]2C(O)N(C(=O)OCC3(SSCC)CCCCC3)c3cc(OC)c(OC)cc3C(=O)N2C1 (stereo partly drawn) [PBD monomer disulfide prodrug 18]", "% Remaining at 24 h by Cys [%]": 75.3}
{"molecule": "C=C1C[C@H]2C(O)N(C(=O)OC[C@@H](C)SSC(C)(C)C)c3cc(OC)c(OC)cc3C(=O)N2C1 (stereo partly drawn) [PBD monomer disulfide prodrug 13]", "% Remaining at 24 h by Cys [%]": 99.9}
{"molecule": "C=C1C[C@H]2C(O)N(C(=O)OCC3(SSCCO)CCCC3)c3cc(OC)c(OC)cc3C(=O)N2C1 (stereo partly drawn) [PBD monomer disulfide prodrug 8]", "% Remaining at 24 h by Cys [%]": 86.7}
{"molecule": "C=C1C[C@H]2C(O)N(C(=O)OCC3(SSCCO)CCOC3)c3cc(OC)c(OC)cc3C(=O)N2C1 (stereo partly drawn) [PBD monomer disulfide prodrug 22]", "% Remaining at 24 h by Cys [%]": 1.4}
{"molecule": "C=C1C[C@H]2C(O)N(C(=O)OC[C@@H](C)SSCC)c3cc(OC)c(OC)cc3C(=O)N2C1 (stereo partly drawn) [PBD monomer disulfide prodrug 12]", "% Remaining at 24 h by Cys [%]": 72.7}
{"molecule": "C=C1C[C@H]2C(O)N(C(=O)OCC(COC)SSC(C)C)c3cc(OC)c(OC)cc3C(=O)N2C1 (stereo partly drawn) [PBD monomer disulfide prodrug 21]", "% Remaining at 24 h by Cys [%]": 74.7}

---

Documented % Remaining at 24 h by Cys across a set of molecules
test: Disulfide cleavage by cysteine, LC/MS; type: physicochemical; conditions: 15 uM compound, 0.2 mM cysteine, pH 7.0, 37 C

{"molecule": "C=C1C[C@H]2C(O)N(C(=O)OCC3(SSCC)CCOC3)c3cc(OC)c(OC)cc3C(=O)N2C1 (single isomer, unassigned) [PBD monomer disulfide prodrug 30]", "measurement-units": "%", "% Remaining at 24 h by Cys": 47.1}
{"molecule": "C=C1C[C@H]2C(O)N(C(=O)OC[C@@H](C)SSC3CCOCC3)c3cc(OC)c(OC)cc3C(=O)N2C1 (stereo partly drawn) [PBD monomer disulfide prodrug 24]", "measurement-units": "%", "% Remaining at 24 h by Cys": 0.1}
{"molecule": "C=C1C[C@H]2C(O)N(C(=O)OCC3(SSCC)CCOC3)c3cc(OC)c(OC)cc3C(=O)N2C1 (single isomer, unassigned) [PBD monomer disulfide prodrug 11]", "measurement-units": "%", "% Remaining at 24 h by Cys": 14.4}
{"molecule": "C=C1C[C@H]2C(O)N(C(=O)OCC3(SSCC)CC3)c3cc(OC)c(OC)cc3C(=O)N2C1 (stereo partly drawn) [PBD monomer disulfide prodrug 17]", "measurement-units": "%", "% Remaining at 24 h by Cys": 34.9}
{"molecule": "C=C1C[C@H]2C(O)N(C(=O)OCC(C)(C)SSCC)c3cc(OC)c(OC)cc3C(=O)N2C1 (stereo partly drawn) [PBD monomer disulfide prodrug 14]", "measurement-units": "%", "% Remaining at 24 h by Cys": 68.1}
{"molecule": "C=C1C[C@H]2C(O)N(C(=O)OCC3(SSCC(=O)O)CCC3)c3cc(OC)c(OC)cc3C(=O)N2C1 (stereo partly drawn) [PBD monomer disulfide prodrug 9]", "measurement-units": "%", "% Remaining at 24 h by Cys": 81.1}
